tested on: methicillin-resistant S. aureus 63718 (MRSA3); experiment: MIC, microtitration broth method; type: cell-based; conditions: Staphylococcus aureus; MRSA 63718
Just a reminder that ties go to Not fulfilled: only MIC strictly below 10 µM counts as Fulfilled.

Here's what some known entries look like.
O=C(/C=C/c1cccc(C(F)(F)F)c1)Nc1cccc(F)c1	Not fulfilled
CC1(C)S[C@@H]2[C@H](NC(=O)[C@H](N)c3ccccc3)C(=O)N2[C@H]1C(=O)O [AMP, ampicillin, reference compound]	Not fulfilled
O=C(/C=C/c1ccc(C(F)(F)F)cc1)Nc1cc(C(F)(F)F)cc(C(F)(F)F)c1	Fulfilled

Please check: MIC for "O=C(/C=C/c1cccc(C(F)(F)F)c1)Nc1cccc(Cl)c1" , strictly under 10 µM or not? Fulfilled

Please check: MIC for "O=C(/C=C/c1cccc(C(F)(F)F)c1)Nc1ccc(C(F)(F)F)cc1" , strictly under 10 µM or not? Fulfilled

* * *

Reported metric: melting point

These solved cases illustrate the format of a correct answer.
O=C(/C=C/c1cccc(C(F)(F)F)c1)Nc1cccc(Cl)c1	126 to 128 °C
O=C(/C=C/c1cccc(C(F)(F)F)c1)Nc1cc(F)cc(F)c1	131 to 133 °C

Let us move to another entry and its melting point.
# input compound: "O=C(/C=C/c1cccc(C(F)(F)F)c1)Nc1ccc(Cl)cc1Cl" ; wanted: its melting point 134 to 136 °C

* * *

test system: methicillin-resistant S. aureus SA 3202 (MRSA1); experiment: MIC, microtitration broth method; type: cell-based; settings: Staphylococcus aureus; MRSA SA 3202
Reported metric: MIC (µM)
Field format: number, assumed µM, no unit text.

These solved cases illustrate the format of a correct answer.
O=C(/C=C/c1cccc(C(F)(F)F)c1)Nc1cc(C(F)(F)F)cc(C(F)(F)F)c1	2.34
O=C(/C=C/c1cccc(C(F)(F)F)c1)Nc1ccc(Cl)cc1	12.3
O=C(/C=C/c1cccc(C(F)(F)F)c1)Nc1cccc(Cl)c1	6.14
O=C(/C=C/c1cccc(C(F)(F)F)c1)Nc1cc(Cl)cc(Cl)c1	1.39
CC1(C)S[C@@H]2[C@H](NC(=O)[C@H](N)c3ccccc3)C(=O)N2[C@H]1C(=O)O [AMP, ampicillin, reference compound]	45.8
O=C(/C=C/c1ccc(C(F)(F)F)cc1)Nc1cc(C(F)(F)F)cc(C(F)(F)F)c1	0.585

# input compound: "O=C(/C=C/c1cccc(C(F)(F)F)c1)Nc1ccc(C(F)(F)F)cc1" ; wanted: its MIC 2.78

# input compound: "O=C(/C=C/c1ccc(C(F)(F)F)cc1)Nc1cccc(C(F)(F)F)c1" ; wanted: its MIC 2.78

# input compound: "O=C(/C=C/c1cccc(C(F)(F)F)c1)Nc1cccc(C(F)(F)F)c1" ; wanted: its MIC 11.1

# input compound: "O=C(/C=C/c1cccc(C(F)(F)F)c1)Nc1cccc(F)c1" ; wanted: its MIC 25.9

* * *

Quick reference: log k of the listed items.
experiment: Lipophilicity determination by RP-HPLC; format: physicochemical; details: RP-HPLC, logarithm of capacity factor k
Lab note: jot down the number only; don't add units.

These solved cases illustrate the format of a correct answer.
O=C(/C=C/c1ccc(C(F)(F)F)cc1)Nc1ccc(F)cc1F [2k]	0.6011
O=C(/C=C/c1ccc(C(F)(F)F)cc1)Nc1cccc(F)c1 [2c]	0.6462
O=C(/C=C/c1ccc(C(F)(F)F)cc1)Nc1cc(C(F)(F)F)cc(C(F)(F)F)c1 [2p]	1.3665

# input molecule: O=C(/C=C/c1ccc(C(F)(F)F)cc1)Nc1ccc(F)cc1 [2d] ; wanted: its log k 0.5887

# input molecule: O=C(/C=C/c1cccc(C(F)(F)F)c1)Nc1ccc(C(F)(F)F)cc1 [1j] ; wanted: its log k 0.9247

# input molecule: O=C(/C=C/c1cccc(C(F)(F)F)c1)Nc1ccccc1 [1a] ; wanted: its log k 0.5234

# input molecule: O=C(/C=C/c1cccc(C(F)(F)F)c1)Nc1ccc(Cl)cc1 [1g] ; wanted: its log k 0.7982

# input molecule: O=C(/C=C/c1ccc(C(F)(F)F)cc1)Nc1cccc(Cl)c1 [2f] ; wanted: its log k 0.8095

* * *

Quick reference: log k of the listed items.
experiment: Lipophilicity determination by RP-HPLC; assay type: physicochemical; settings: RP-HPLC, logarithm of capacity factor k
Lab note: jot down the number only; don't add units.

These solved cases illustrate the format of a correct answer.
O=C(/C=C/c1cccc(C(F)(F)F)c1)Nc1ccc(Cl)cc1Cl	0.9782
O=C(/C=C/c1cccc(C(F)(F)F)c1)Nc1ccc(F)cc1	0.5760
O=C(/C=C/c1cccc(C(F)(F)F)c1)Nc1cc(Cl)cc(Cl)c1	1.2028
O=C(/C=C/c1ccc(C(F)(F)F)cc1)Nc1ccc(C(F)(F)F)cc1	0.9319

Let us move to another entry and its log k.
# input compound: "O=C(/C=C/c1cccc(C(F)(F)F)c1)Nc1cccc(Cl)c1" ; wanted: its log k 0.8016

* * *

Quick reference: log k of the listed items.
assay: Lipophilicity determination by RP-HPLC; assay type: physicochemical; details: RP-HPLC, logarithm of capacity factor k
Lab note: jot down the number only; don't add units.

These solved cases illustrate the format of a correct answer.
O=C(/C=C/c1ccc(C(F)(F)F)cc1)Nc1ccc(Cl)cc1 [2g]	0.8054
O=C(/C=C/c1ccc(C(F)(F)F)cc1)Nc1ccccc1Cl [2e]	0.6614
O=C(/C=C/c1ccc(C(F)(F)F)cc1)Nc1cc(Cl)ccc1Cl [2n]	0.9583
O=C(/C=C/c1ccc(C(F)(F)F)cc1)Nc1cc(Cl)cc(Cl)c1 [2o]	1.2024

# input molecule: O=C(/C=C/c1cccc(C(F)(F)F)c1)Nc1cccc(C(F)(F)F)c1 [1i] ; wanted: its log k 0.8807

* * *

system: Enterococcus faecalis ATCC 29212; assay: MIC, microtitration broth method; assay type: cell-based; details: ATCC29212, E. faecalis reference strain
Reported metric: MIC (µM)
Field format: number, assumed µM, no unit text.

These solved cases illustrate the format of a correct answer.
O=C(/C=C/c1cccc(C(F)(F)F)c1)Nc1ccc(C(F)(F)F)cc1	22.3
O=C(/C=C/c1cccc(C(F)(F)F)c1)Nc1cc(Cl)cc(Cl)c1	11.1
O=C(/C=C/c1ccc(C(F)(F)F)cc1)Nc1cccc(C(F)(F)F)c1	11.1
O=C(/C=C/c1ccc(C(F)(F)F)cc1)Nc1cc(C(F)(F)F)cc(C(F)(F)F)c1	2.34

Let us move to another entry and its MIC.
# input compound: CC1(C)S[C@@H]2[C@H](NC(=O)[C@H](N)c3ccccc3)C(=O)N2[C@H]1C(=O)O [AMP, ampicillin, reference compound] ; wanted: its MIC 2.81

* * *

Reported metric: melting point

These solved cases illustrate the format of a correct answer.
O=C(/C=C/c1cccc(C(F)(F)F)c1)Nc1ccccc1Cl	118 to 120 °C
O=C(/C=C/c1ccc(C(F)(F)F)cc1)Nc1cccc(C(F)(F)F)c1	134 to 136 °C
O=C(/C=C/c1ccc(C(F)(F)F)cc1)Nc1cccc(F)c1	146 to 148 °C

Let us move to another entry and its melting point.
# input compound: "O=C(/C=C/c1ccc(C(F)(F)F)cc1)Nc1ccc(Cl)cc1" ; wanted: its melting point 185 to 187 °C

* * *

assay: Lipophilicity determination by RP-HPLC; type: physicochemical; details: RP-HPLC, logarithm of capacity factor k
# cutoff 0.8 applies to log k; >= gives YES, < gives NO

Assess whether reported log k for O=C(/C=C/c1ccc(C(F)(F)F)cc1)Nc1cc(F)cc(F)c1 [2l] sits at 0.8 or higher. YES

Assess whether reported log k for O=C(/C=C/c1ccc(C(F)(F)F)cc1)Nc1ccccc1C(F)(F)F [2h] sits at 0.8 or higher. NO

Assess whether reported log k for O=C(/C=C/c1cccc(C(F)(F)F)c1)Nc1cc(C(F)(F)F)cc(C(F)(F)F)c1 [1p] sits at 0.8 or higher. YES

Assess whether reported log k for O=C(/C=C/c1cccc(C(F)(F)F)c1)Nc1ccccc1C(F)(F)F [1h] sits at 0.8 or higher. NO

Assess whether reported log k for O=C(/C=C/c1ccc(C(F)(F)F)cc1)Nc1cccc(C(F)(F)F)c1 [2i] sits at 0.8 or higher. YES

Assess whether reported log k for O=C(/C=C/c1ccc(C(F)(F)F)cc1)Nc1ccc(Cl)cc1Cl [2m] sits at 0.8 or higher. YES

Assess whether reported log k for O=C(/C=C/c1ccc(C(F)(F)F)cc1)Nc1ccccc1F [2b] sits at 0.8 or higher. NO

Assess whether reported log k for O=C(/C=C/c1cccc(C(F)(F)F)c1)Nc1cccc(F)c1 [1c] sits at 0.8 or higher. NO

* * *

Quick reference: log k of the listed items.
experiment: Lipophilicity determination by RP-HPLC; assay type: physicochemical; conditions: RP-HPLC, logarithm of capacity factor k

O=C(/C=C/c1cccc(C(F)(F)F)c1)Nc1cc(F)cc(F)c1	0.8186
O=C(/C=C/c1cccc(C(F)(F)F)c1)Nc1ccccc1Cl	0.6568
O=C(/C=C/c1cccc(C(F)(F)F)c1)Nc1ccccc1F	0.5375
O=C(/C=C/c1cccc(C(F)(F)F)c1)Nc1cc(Cl)ccc1Cl	0.9612

# input compound: "O=C(/C=C/c1cccc(C(F)(F)F)c1)Nc1ccc(F)cc1F" ; wanted: its log k 0.5906

The measured values listed here are drawn from paper PMC9737391.
